Tested Target: T1, Cynomolgus TCR(AEA41865/AEA41866)-zipper protein (cynomolgus monkey)
T1 construct: also called cyTCR-zipper protein; cynoTCR zipper
T1 TCR alpha: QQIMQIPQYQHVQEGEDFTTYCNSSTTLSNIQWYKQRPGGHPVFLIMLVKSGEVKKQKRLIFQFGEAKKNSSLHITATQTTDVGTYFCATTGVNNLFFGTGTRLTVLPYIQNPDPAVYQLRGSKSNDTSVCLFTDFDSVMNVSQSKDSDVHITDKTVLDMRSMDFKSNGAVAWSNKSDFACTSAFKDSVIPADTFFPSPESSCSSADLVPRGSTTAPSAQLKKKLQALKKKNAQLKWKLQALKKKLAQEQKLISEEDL
T1 TCR beta: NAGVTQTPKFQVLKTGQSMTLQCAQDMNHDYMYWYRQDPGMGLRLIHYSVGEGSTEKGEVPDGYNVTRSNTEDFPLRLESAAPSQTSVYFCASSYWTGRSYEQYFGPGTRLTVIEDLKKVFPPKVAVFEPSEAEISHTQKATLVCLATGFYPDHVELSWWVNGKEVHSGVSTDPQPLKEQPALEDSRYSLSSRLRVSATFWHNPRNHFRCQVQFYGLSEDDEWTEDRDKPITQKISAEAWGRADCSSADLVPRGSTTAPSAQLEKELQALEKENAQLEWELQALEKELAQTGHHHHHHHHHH
Assay Remarks: SPR ProteOn off-rate screen
Property Label: koff (s⁻¹)
Field: numeric (s⁻¹). Do not append units.

# count of solved cases: 3
{"columns": ["Binder", "Property Label", "Endpoint Value"],
 "data": [
  ["T017000358 (VHH) VHH: EVQLVESGGGVVQPGGSLRLSCVASGAVHKLNFLGWYRQAPGKEREKVAHISIGDQTDYADSAKGRFTISRDESKNMVYLQMNSLRPEDTALYFCRAMSRIWPYDYWGQGTLVTVSS", "koff", 0.00115],
  ["T017000609 (VHH) VHH: EVQLVESGGGVVQPGGSLRLSCVASGDVHQINFLGWYRQAPGKEREKVAHISIGDQTDYADSAKGRFTISRDESKNMVYLQMNSLRPEDTALYFCRAFSKIYPYDYWGQGTLVTVSS", "koff", 0.00114],
  ["T017000766 (VHH) VHH: EVQLVESGGGVVQPGGSLRLSCVASGYVHKINFYGWYRQAPGKEREKVAHISIGDQTDYADSAKGRFTISRDESKNMVYLQMNSLRPEDTALYFCRAMSKIYPYDYWGQGTLVTVSS", "koff", 0.000239]
]}

Switching to the query record.
QUERY: Which koff reading was recorded for the binder T017000776 (VHH) VHH: EVQLVESGGGVVQPGGSLRLSCVASWSVHQINFYGWYRQAPGKEREKVAHISIGDQTDYADSAKGRFTISRDESKNMVYLQMNSLRPEDTALYFCRAMSKIWPYDYWGQGTLVTVSS ?
RESULT: 0.000525

Reference for the values: patent US20240092919A1
